Property: EC50; scope: individual molecules
# Test system: RKO p27 or p21 induced (arrested) colon adenocarcinoma cells
# Measurement notes: Alamar Blue cell viability assay, RKO p27 or p21 induced (arrested)
# Type: cell-based
# Assay setup: Homo sapiens, RKOp27, Table B2, cells arrested by Ponasterone A, 72 hours, read-out: −log EC50 RKO p27 or p21 induced (arrested) (converted)

INSERT INTO results (molecule, property, result) VALUES
  ('CCN(CC)CCN1C(=O)N2[C@H](c3cccc(O)c3)c3[nH]c4ccc(Cl)cc4c3C[C@@]2(C)C1=O (racemic)', 'EC50', '≥ 0.316 µM'),
  ('CCN(CCO)CCCN1C(=O)N2[C@H](c3cccc(O)c3)c3[nH]c4ccc(OC)cc4c3C[C@@]2(C)C1=O (racemic)', 'EC50', '≥ 3.16 µM'),
  ('COc1ccc2[nH]c3c(c2c1)C[C@@]1(C)C(=O)N(CCCN(C)C(C)C)C(=O)N1[C@@H]3c1cccc(O)c1 (racemic)', 'EC50', '≥ 3.16 µM'),
  ('C[C@@]12Cc3c([nH]c4ccc(Cl)cc34)[C@@H](c3cccc(O)c3)N1C(=O)N(CCNCC1CC1)C2=O (racemic)', 'EC50', '≥ 0.316 µM'),
  ('COc1ccc2[nH]c3c(c2c1)C[C@@]1(C)C(=O)N(CCN2CCCCC2)C(=O)N1[C@@H]3c1cccc(O)c1 (racemic)', 'EC50', '≥ 3.16 µM');

Please look at the following molecule next.
Which value of EC50 has been reported for CCN(CC)CCCN1C(=O)N2[C@H](c3cccc(O)c3)c3[nH]c4ccc(Cl)cc4c3C[C@@]2(C)C1=O (racemic) in the records?
≥ 3.16 µM
